test system: MDA-MB-468 breast; test: NCI tumour cell line growth inhibition, 48 h; in the data active = GI50 below about 0.43 µM; inactive = the rest
Answer with one of the outcomes given here: active, inactive

Example entries begin here.
Compound	Category
CC(=O)O[C@H]1C(=O)[C@@]2(C)C(C(OC(=O)c3ccccc3)[C@]3(O)C[C@H](OC(=O)C(OC(=O)CCCC(=O)NCCCN(C)C)C(NC(=O)c4ccccc4)c4ccccc4)C(C)=C1C3(C)C)C1(OC(C)=O)COC1C[C@@H]2O (stereo not given in full)	active
CC(Nc1ncnc2ccc(-c3ccc4oc(N)nc4c3)cc12)c1ccccc1 (stereo not given)	inactive
CC(=O)Nc1ccc2c(c1)C(c1ccccc1Cl)=Nc1c(n[nH]c1C)N2	inactive
CN(C)c1ccnc(CNCCSC2(c3ccc(C(F)(F)F)cc3)c3ccccc3CCc3ccccc32)c1	active
CCOC(=O)c1ccc(NC(=O)Nc2nncs2)cc1	active
CC(C)(C)c1ccc(S(=O)(=O)Oc2ccc3c4c(c(=O)oc3c2)CCCCC4)cc1	inactive
OCCN1CCN(CCCN2c3ccccc3Sc3ccc(Cl)cc32)CC1	inactive
O=C(CCCCCCNC(=O)C(O)(O)C(F)(F)F)Nc1ccc(Cl)cc1	inactive

Q: Dear all, I need the recorded test outcome for Cc1cc2nc3c4cc(O)ccc4n(CCN(C)C)c3nc2cc1C , thank you.
Result: inactive

Q: Dear all, I need the recorded test outcome for O=Nc1ccc(O)c(=O)cc1 , thank you.
Result: inactive

====

system: MDA-MB-468 breast; experiment: NCI tumour cell line growth inhibition, 48 h
TGI by entry:
Field: numeric (µM). Do not append units.

Smiles text	Measurement type	Measured result
COC[C@@H](N=C1NC(=O)/C(=C/c2ccc3ncccc3c2)S1)c1ccccc1	TGI	17.6
Cc1nc([P+](c2ccccc2)(c2ccccc2)c2ccccc2)c(Sc2sc(-c3ccccc3)nc2[P+](c2ccccc2)(c2ccccc2)c2ccccc2)o1	TGI	3.28

Now take the following molecule into account.
Q: Check the records and state TGI for Fc1cccc(COc2ccc(Nc3ncnc4sc(-c5cccs5)cc34)cc2Cl)c1
Result: 2.31

====

tested on: MDA-MB-468 breast; assay: NCI tumour cell line growth inhibition, 48 h
Binary classification by TGI, with 6 µM as an inclusive lower bound for 1; all other cases are -1.

Example entries begin here.
Molecule	Experimental system	Category
O=c1c2c(=NCCN3CCCC3)cc3c(=O)n(CCCN4CCOCC4)c(=O)c4c(-c5ccc(CN6CCCC6)cc5)cc(c(O)n1CCCN1CCOCC1)c2c4-3	MDA-MB-468 breast	-1
COc1ccc(/C=C/C(=O)c2cc(OC)c(OC)c(OC)c2)cc1OCC(=O)Nc1nc2ccc(OC(F)(F)F)cc2s1	MDA-MB-468 breast	1
O=Nc1ccc(O)c(=O)cc1	MDA-MB-468 breast	-1
CC(N)C(Cc1ccc(Cl)cc1)c1ccc(Cl)cc1 (stereo not drawn)	MDA-MB-468 breast	1
Fc1cc2[nH]ncc2c2c3c(c(-c4cn[nH]c4C(F)(F)F)nc12)CCCC3	MDA-MB-468 breast	-1

Q: Does CC(=O)O[C@H]1C(=O)[C@@]2(C)C(C(OC(=O)c3ccccc3)[C@]3(O)C[C@H](OC(=O)C(OC(=O)CCCC(=O)NCCCN(C)C)C(NC(=O)c4ccccc4)c4ccccc4)C(C)=C1C3(C)C)C1(OC(C)=O)COC1C[C@@H]2O (stereo partly drawn) have a reported TGI of at least 6 µM?
Result: 1

Q: Does COc1cc(OC)c(S(N)(=O)=O)cc1C(=O)/C=C/c1ccccc1 have a reported TGI of at least 6 µM?
Result: 1
